# Run Description: A CellTox Green Cytotoxicity Assay to monitor cytotoxicity in HEK293 cells - 8 hour (AID 1224884); also: nearly all actives have a fitted effect of over 35% in size
# Conditions Used: CellTox Green fluorescence; series mostly up to 76.8 µM
Inconclusive results are not listed. Activity calls are given as the source filed them. Calls follow the shape of the dose curve; as a rule, active = well fitted activation curve with a large enough effect in the repeat runs; inconclusive = weak or mixed curves; inactive = flat fitted curve, though single readings scatter.
Use one of these outcomes when replying: yes (active), no (inactive)

Past entries and their recorded results:
CCCCCCCCCCCCCCCC[N+](C)(C)CCN(Cc1ccc(OC)cc1)c1ncccn1	yes
Clc1ccc(C(Cn2ccnc2)OCc2ccc(Sc3ccccc3)cc2)c(Cl)c1 (stereo not drawn)	no
C=CC(=O)OCC(CO)(COC(=O)C=C)COC(=O)C=C	no
CNC(=O)c1ccccc1	no
CCCCCCCCCCCC[N+](C)(C)CCCCCCCCCCCC	yes
CCN(Cc1cccnc1)C(=O)c1cccc(Cl)c1[C@]1(C)C(=O)N(Cc2ccc(OC)cc2OC)c2ccc(Cl)cc21	no

Pending molecule:
[in] Query: recorded result category for `CCN(CCC#N)c1ccc(N=Nc2c(Cl)cc([N+](=O)[O-])cc2Cl)cc1` in this test
[out] no

---

# Experimental System: Nuclear receptor subfamily 1 group I member 2 (Homo sapiens)
# Run Description: Human pregnane X receptor (PXR) small molecule agonists, qHTS assay (AID 1346982); also: nearly all actives have a fitted effect of over 35% in size
# Conditions Used: PXR-Luc HepG2, CYP3A4 luciferase reporter, 24 h; series mostly up to 92.4 µM
Results filed as inconclusive are left out. The source made the active and inactive calls. Calls come from the whole dose curve; as a rule, active = well fitted activation curve with a large enough effect in the repeat runs; inconclusive = weak or mixed curves; inactive = no such curve, though single readings can be large or run the other way.
Use one of these outcomes when replying: active, inactive

CC[C@@]1(O)C(=O)OCc2c1cc1n(c2=O)Cc2c-1nc1ccccc1c2/C=N/OC(C)(C)C	inactive

[in] Query: recorded result category for `O=[N+]([O-])c1cc(Cl)c(Cl)c(Cl)c1Cl` in this test
[out] active

[in] Moving on to CC(C)(C)C1CCC(CC2=C(O)c3ccccc3C(=O)C2=O)CC1 (stereo unspecified)
[out] active

[in] Moving on to `C/C=C(\C)C(=O)OCc1ccccc1`
[out] inactive

[in] Moving on to `Cc1[nH]nc2c1N=C(c1ccccc1Cl)c1cc([N+](=O)[O-])ccc1N2`
[out] active

[in] Moving on to `O=C(NO)C1(NS(=O)(=O)c2ccc(Oc3ccc(F)cc3)cc2)CCOCC1`
[out] inactive

---

# Run Description: qHTS assay to identify small molecule agonists of the constitutive androstane receptor (CAR) signaling pathway - cell viability counter screen (AID 1224836); also: potency is read from the fitted curve at half-maximal effect; nearly all actives have a fitted effect of over 45% in size
# Conditions Used: HepG2-CYP2B6-hCAR viability, CellTiter-Fluor, 23 h, PK11195 added to every well; series mostly up to 92.4 µM
Records with an inconclusive call do not appear. Activity calls are given as the source filed them. Calls come from the whole dose curve; as a rule, active = well fitted cell-killing curve with a large enough effect in the repeat runs; inconclusive = weak or mixed curves, or effect the other way; inactive = flat fitted curve, though single readings scatter.
Use one of these outcomes when replying: active, inactive

[in] Query: recorded result category for `CCCCCCCCCCCC(=O)NCCCN(C)C` in this test
[out] active

---

# Run Description: qHTS RealTime-Glo MT Cell Viability Assay in HEK293 cells - 16 hour (AID 1224872); also: nearly all actives have a fitted effect of over 50% in size; also: potency is read from the fitted curve at half-maximal effect
# Conditions Used: RealTime-Glo luminescence; series mostly up to 76.8 µM
Records with an inconclusive call do not appear. Active and inactive are the calls of the source. The call rests on the fitted dose curve; in most records, active means well fitted cell-killing curve with a large enough effect in the repeat runs; inconclusive means weak or mixed curves, or effect the other way; inactive means flat fitted curve, though single readings scatter.
Quantity Measured: Potency

Use these answered entries as a reference point.
c1cc(C(c2ccc(OCC3CO3)cc2)c2ccc(OCC3CO3)cc2)ccc1OCC1CO1 (stereo unspecified)	inactive
COc1cccc(N)c1	inactive
CCC(C)(C)C1CCCCC1OC(C)=O (stereo unspecified)	inactive
O=C(Oc1ccccc1)c1ccccc1C(=O)Oc1ccccc1	inactive
CC(C)(C)C(=O)OCOC(=O)[C@@H]1N2C(=O)[C@@H](NC(=O)[C@H](N)c3ccccc3)[C@H]2SC1(C)C	inactive
[Cl][Bi]([Cl])([c]1ccccc1)([c]1ccccc1)[c]1ccccc1	4.87 µM (active)

[in] Please report the recorded Potency for `CCc1cc(Cc2cc(CC)cc(C(C)(C)C)c2O)c(O)c(C(C)(C)C)c1` .
[out] 13.8 µM (active)

[in] Moving on to COC(=O)C1=C(C)NC(C)=C(C(=O)OCC(C)C)C1c1ccccc1[N+](=O)[O-] (stereo unspecified)
[out] 38.9 µM (active)

// data source = PubChem BioAssay (Tox21)
